# Target entity: ALDH1A1 enzyme (Homo sapiens, UniProt P00352)
# Sequence (P00352 1-501): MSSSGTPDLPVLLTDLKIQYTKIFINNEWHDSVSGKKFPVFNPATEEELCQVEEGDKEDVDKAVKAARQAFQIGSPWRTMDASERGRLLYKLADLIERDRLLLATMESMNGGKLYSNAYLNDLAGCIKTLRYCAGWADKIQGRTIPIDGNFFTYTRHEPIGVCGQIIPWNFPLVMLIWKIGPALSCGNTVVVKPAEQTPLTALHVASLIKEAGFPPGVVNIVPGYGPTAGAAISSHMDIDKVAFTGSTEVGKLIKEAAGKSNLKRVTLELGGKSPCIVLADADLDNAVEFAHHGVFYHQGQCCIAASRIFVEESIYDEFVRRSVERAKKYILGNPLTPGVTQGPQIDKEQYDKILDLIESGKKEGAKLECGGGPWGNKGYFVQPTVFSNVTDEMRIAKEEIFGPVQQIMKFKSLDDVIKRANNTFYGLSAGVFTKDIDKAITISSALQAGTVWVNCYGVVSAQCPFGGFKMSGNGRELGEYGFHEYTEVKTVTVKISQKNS
# Method: ALDH1A1 enzymatic assay (in vitro)
# Format: biochemical
# Test conditions: ALDH1A1 enzyme 20 nM, NAD+ 1 mM, propionaldehyde 80 μM; read-out: ALDH1A1 IC50
Readout: IC50

Below are worked cases with known answers.
compound=CCNC(=O)N1CCN(C(=O)c2cnc3cc(F)c(F)cc3c2N2CCC3(CC2)OCCO3)CC1 target_entity="ALDH1A1 enzyme (Homo sapiens, UniProt P00352)" assay_result="< 500 nM"
compound=CCNC(=O)N1CCN(C(=O)c2cnc3c(F)c(F)c(F)cc3c2N2CCC3(CC2)OCCO3)CC1 target_entity="ALDH1A1 enzyme (Homo sapiens, UniProt P00352)" assay_result="< 500 nM"
compound=CN(C)C(=O)N1CCN(C(=O)c2cnc3ccc(Cl)cc3c2N2CCC(C#N)(c3ccccc3)CC2)CC1 target_entity="ALDH1A1 enzyme (Homo sapiens, UniProt P00352)" assay_result="< 500 nM"

Now consider the entry below.
Quick note, IC50 for COc1cc2ncc(C(=O)N3CCN(S(C)(=O)=O)CC3)c(N3CCC4(CC3)OCCO4)c2cc1OC landed at < 500 nM
